- measurement target: Anti-cotinine antibody (SEQ ID NO: 11 / SEQ ID NO: 12, rabbit variable region with human IgG1 Fc domain)
- assay text: Binding of anti-cotinine antibody to ARM compounds by SPR, Biacore T200, 37° C. (Example 202)
- condition description: pH 7.4, rabbit variable region/human IgG1 Fc antibody captured on protein A
// values below are reported pKd of Antibody for ARM Compound of Formula (I)
The reply should be a number, written without any unit.

CC(C)N(C)[C@@H]1CC[C@H](N2CC[C@H](Nc3ncnc4ccc(C(F)(F)F)cc34)C2=O)[C@H](NC(=O)CCOCCNC(=O)CCOCCNC(=O)CCOCCNC(=O)[C@H]2CC(=O)N(C)[C@@H]2c2cccnc2)C1	9.074
CC(C)N(C)[C@@H]1CC[C@H](N2CC[C@H](Nc3ncnc4ccc(C(F)(F)F)cc34)C2=O)[C@H](NC(=O)[C@H]2CC[C@H](NC(=O)CCCOC[C@H]3CC[C@@H](COCCNC(=O)[C@H]4CC(=O)N(C)[C@@H]4c4cccnc4)CC3)CC2)C1	9.685
CC(C)N(C)[C@@H]1CC[C@H](N2CC[C@H](Nc3ncnc4ccc(C(F)(F)F)cc34)C2=O)[C@H](NC(=O)[C@H]2CC[C@H](NC(=O)CCOC[C@H]3CC[C@H](COCCNC(=O)[C@H]4CC(=O)N(C)[C@@H]4c4cccnc4)CC3)CC2)C1	9.531
CC(C)N(C)[C@@H]1CC[C@H](N2CC[C@H](Nc3ncnc4ccc(C(F)(F)F)cc34)C2=O)[C@H](NC(=O)[C@H]2CC[C@@H](NC(=O)CCCO[C@H]3CC[C@H](NC(=O)CCNC(=O)[C@@H]4CC(=O)N(C)[C@H]4c4cccnc4)CC3)CC2)C1	9.2545
CC(C)N(C)[C@@H]1CC[C@H](N2CC[C@H](Nc3ncnc4ccc(C(F)(F)F)cc34)C2=O)[C@H](NC(=O)COCCNC(=O)CCOCCNC(=O)COCCNC(=O)[C@H]2CC(=O)N(C)[C@@H]2c2cccnc2)C1	9.051

Form field: reported pKd of Antibody for ARM Compound of Formula (I) of CN1C(=O)C[C@H](C(=O)NCCCOCCCNC(=O)CCCC(=O)NC2CCC(C(=O)N[C@@H]3C[C@H](NC(C)(C)C)CC[C@@H]3N3CC[C@H](Nc4ncnc5ccc(C(F)(F)F)cc45)C3=O)CC2)[C@H]1c1cccnc1 (stereo partly shown) 9.2495

Also, `CN1C(=O)C[C@H](C(=O)NCCOCC(=O)NCCOCC(=O)NCCOCCC(=O)N[C@@H]2C[C@H](NC(C)(C)C)CC[C@@H]2N2CC[C@H](Nc3ncnc4ccc(C(F)(F)F)cc34)C2=O)[C@H]1c1cccnc1` please. 9.0985

Same for `CC(C)N(C)[C@@H]1CC[C@H](N2CC[C@H](Nc3ncnc4ccc(C(F)(F)F)cc34)C2=O)[C@H](NC(=O)[C@H]2CC[C@@H](NC(=O)CNC(=O)CCOCCOCCNC(=O)[C@H]3CC(=O)N(C)[C@@H]3c3cccnc3)CC2)C1` 9.302

Can you check `CC(C)N(C)[C@@H]1CC[C@H](N2CC[C@H](Nc3ncnc4ccc(C(F)(F)F)cc34)C2=O)[C@H](NC(=O)[C@H]2C[C@@H](NC(=O)CCOCCOCCOCCNC(=O)[C@H]3CC(=O)N(C)[C@@H]3c3cccnc3)C2)C1` next? 9.4425

Param item: `CC(C)N(C)[C@@H]1CC[C@H](N2CC[C@H](Nc3ncnc4ccc(C(F)(F)F)cc34)C2=O)[C@H](NC(=O)[C@H]2CC[C@@H](NC(=O)CCCOCCCCOCCNC(=O)[C@H]3CC(=O)N(C)[C@@H]3c3cccnc3)CC2)C1` 9.146

Follow-up item: `CC(C)N(C)[C@@H]1CC[C@H](N2CC[C@H](Nc3ncnc4ccc(C(F)(F)F)cc34)C2=O)[C@H](NC(=O)[C@H]2CC[C@@H](NC(=O)CCCO[C@H]3CC[C@@H](OCCNC(=O)[C@H]4CC(=O)N(C)[C@@H]4c4cccnc4)CC3)CC2)C1` 9.2795

Entry `CN1C(=O)C[C@H](C(=O)NCCO[C@H]2CC[C@H](OCCCC(=O)N[C@H]3CC[C@H](C(=O)N[C@@H]4C[C@H](NC(C)(C)C)CC[C@@H]4N4CC[C@H](Nc5ncnc6ccc(C(F)(F)F)cc56)C4=O)CC3)CC2)[C@H]1c1cccnc1` please 9.199

`CC(C)N(C)[C@@H]1CC[C@H](N2CC[C@H](Nc3ncnc4ccc(C(F)(F)F)cc34)C2=O)[C@H](NC(=O)[C@H]2CC[C@@H](NC(=O)COCCNC(=O)CCOCCNC(=O)[C@H]3CC(=O)N(C)[C@@H]3c3cccnc3)CC2)C1` ? 9.111

Try this compound next: `CC(C)N(C)[C@@H]1CC[C@H](N2CC[C@H](Nc3ncnc4ccc(C(F)(F)F)cc34)C2=O)[C@H](NC(=O)CCOCCNC(=O)CCOCCNC(=O)COCCNC(=O)[C@H]2CC(=O)N(C)[C@@H]2c2cccnc2)C1` 9.0705

Now consider `CC(C)N(C)[C@@H]1CC[C@H](N2CC[C@H](Nc3ncnc4ccc(C(F)(F)F)cc34)C2=O)[C@H](NC(=O)[C@H]2CC[C@H](CNC(=O)CCOCCOCCOCCNC(=O)[C@H]3CC(=O)N(C)[C@@H]3c3cccnc3)CC2)C1` and answer again. 9.1825

Ok, now `CC(C)N(C)[C@@H]1CC[C@H](N2CC[C@H](Nc3ncnc4ccc(C(F)(F)F)cc34)C2=O)[C@H](NC(=O)CCOCCOCCNC(=O)NCCOCCOCCNC(=O)[C@H]2CC(=O)N(C)[C@@H]2c2cccnc2)C1` 9.1735
